# targetOfAssay: T1, SCAF8-CID (human, UniProt Q9UPN6 1-139)
# T1 sequence: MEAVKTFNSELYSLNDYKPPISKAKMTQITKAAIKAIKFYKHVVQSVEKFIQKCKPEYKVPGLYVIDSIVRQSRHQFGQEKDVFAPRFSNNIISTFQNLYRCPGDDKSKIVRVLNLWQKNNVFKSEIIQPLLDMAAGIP
# protocolNotes: SPR
experimentalEndpoint: Kd (nM)
Output spec: scalar in nM, unitless text.

Prompt: Give the measured Kd of GGGGTGGGGAG (ssDNA) [SRiApt-1 (SCAF4_F3_11nt)] .
Response: 56.3
